EXPERIMENTAL_TARGET: T1, human PTH1R overexpressed on CHO cells (human, UniProt Q03431 27-593)
T1 construct: whole, on cells; also called CHO human PTH1R; CHO Human PTHR
T1 sequence (looked up): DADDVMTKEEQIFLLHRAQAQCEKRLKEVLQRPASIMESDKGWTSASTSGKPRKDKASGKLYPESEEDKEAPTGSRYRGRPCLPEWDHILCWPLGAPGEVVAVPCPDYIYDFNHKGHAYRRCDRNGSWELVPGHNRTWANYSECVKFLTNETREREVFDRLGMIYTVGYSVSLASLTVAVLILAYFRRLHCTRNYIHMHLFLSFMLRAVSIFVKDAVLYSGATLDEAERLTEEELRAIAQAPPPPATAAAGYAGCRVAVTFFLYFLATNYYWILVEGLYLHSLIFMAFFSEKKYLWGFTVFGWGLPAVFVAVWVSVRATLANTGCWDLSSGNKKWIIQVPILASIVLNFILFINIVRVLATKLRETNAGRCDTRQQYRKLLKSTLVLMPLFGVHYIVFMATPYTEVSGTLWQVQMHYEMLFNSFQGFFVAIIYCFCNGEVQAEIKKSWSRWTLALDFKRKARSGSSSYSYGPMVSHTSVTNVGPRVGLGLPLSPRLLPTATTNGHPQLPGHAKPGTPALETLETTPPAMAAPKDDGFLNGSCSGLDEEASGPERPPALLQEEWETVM
PROCEDURE_DETAILS: flow cytometry on CHO cells, 24 hr at 4 C
QUANTITY_MEASURED: EC50 (nM)
Give the value, in units of nM, as a plain number.

Some binders with known EC50 results, for comparison:
binder="XPA.85.338 (antibody, V domains shown, Light-chain-shuffled variant of XPA.85.017) VH: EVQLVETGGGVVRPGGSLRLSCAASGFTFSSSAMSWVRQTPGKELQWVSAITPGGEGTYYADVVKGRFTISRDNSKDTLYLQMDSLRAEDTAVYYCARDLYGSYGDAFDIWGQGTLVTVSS VL: SYELTQPPSVSVAPGQTATITCSGDKLGDKYASWYQQKPGQSPVLVMFENRDRPSGIPDRFSGSNSGNTATLTISGTQAMDEADYYCQAWDSSTAWVFGGGTQLTVL" quantity_measured=EC50 assay_result=0.181
binder="XPA.85.341 (antibody, V domains shown, Light-chain-shuffled variant of XPA.85.017) VH: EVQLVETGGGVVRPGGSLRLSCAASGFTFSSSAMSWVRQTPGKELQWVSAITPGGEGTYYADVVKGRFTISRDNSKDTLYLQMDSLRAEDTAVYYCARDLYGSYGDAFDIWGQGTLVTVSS VL: SYELTQPSSVSVSPGQTASITCSGDKLGEKYASWYQQKPGQSPVLVMFEDTKRPSGIPERFSGSNSGNTATLTISGTQAEDEADYYCQAWDSSWVFGGGTQLTVL" quantity_measured=EC50 assay_result=0.202
binder="XPA.85.337 (antibody, V domains shown, Light-chain-shuffled variant of XPA.85.017) VH: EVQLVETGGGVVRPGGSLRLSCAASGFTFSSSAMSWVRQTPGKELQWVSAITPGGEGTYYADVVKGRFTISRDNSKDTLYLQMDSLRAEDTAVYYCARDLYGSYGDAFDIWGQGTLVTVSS VL: SYVLTQPPSVSVAPGQTATITCSGDDFGDKYVSWYQQKPGQSPLLVIFQDNERPSGIPERFSGSNSGNTATLTISGTQAMDEADYYCQAWDSNWVFGGGTKVTVL" quantity_measured=EC50 assay_result=1.26
binder="XPA.85.340 (antibody, V domains shown, Light-chain-shuffled variant of XPA.85.017) VH: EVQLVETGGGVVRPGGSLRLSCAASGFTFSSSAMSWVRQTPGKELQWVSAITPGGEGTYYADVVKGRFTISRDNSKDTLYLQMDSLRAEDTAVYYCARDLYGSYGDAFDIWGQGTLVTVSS VL: SYVLTQPPSVSVAPGQTASITCSGDNLGEKFVSWYQQKAGQSPVLVIFEDNKRPSGIPERFAGSNSGNRATLTIRGTQAEDEADYYCQAWDSSWVFGGGTQLTVL" quantity_measured=EC50 assay_result=0.167

// lookup EC50 for XPA.85.339 (antibody, V domains shown, Light-chain-shuffled variant of XPA.85.017) VH: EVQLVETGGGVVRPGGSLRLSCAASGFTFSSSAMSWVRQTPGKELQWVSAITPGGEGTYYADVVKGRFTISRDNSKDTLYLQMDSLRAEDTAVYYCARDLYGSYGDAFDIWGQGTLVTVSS VL: SYELTQPPSVSVAPGQTATITCSGDRLGDKFISWYQQKPGQSPLLVIFEDNERPSRIPERFSGSNSGNSATLTISGTQAVDEADYYCQAWDSSWVFGGGTQLTVL
0.142

Source listed as patent US20200317817A1.
